targetSystem: T1, human activated protein C (APC) (human, UniProt P04070 43-461)
T1 construct: Bought (Haematologic Technologies; plasma-derived from Enzyme Research Laboratories); Two-chain disulfide-linked protease
T1 sequence (P04070 other isoform, or with tags, fused parts or gaps): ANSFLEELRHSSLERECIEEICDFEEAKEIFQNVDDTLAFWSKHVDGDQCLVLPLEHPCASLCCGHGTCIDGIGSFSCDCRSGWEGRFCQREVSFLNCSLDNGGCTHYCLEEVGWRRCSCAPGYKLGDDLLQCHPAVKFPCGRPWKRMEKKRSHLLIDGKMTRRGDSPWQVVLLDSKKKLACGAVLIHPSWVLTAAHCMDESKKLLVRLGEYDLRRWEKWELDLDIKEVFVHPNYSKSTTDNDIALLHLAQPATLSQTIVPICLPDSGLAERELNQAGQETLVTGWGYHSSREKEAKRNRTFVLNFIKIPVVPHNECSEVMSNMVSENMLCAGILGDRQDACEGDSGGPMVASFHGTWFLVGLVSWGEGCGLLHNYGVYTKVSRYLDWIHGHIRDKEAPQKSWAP
testMethodNotes: BLI, VHH captured via anti-V5, APC in solution
assayReadout: kon (M⁻¹ s⁻¹)
Write the answer as a number in M⁻¹ s⁻¹, unit excluded.

LP1 (SR16983-R2-P3-D06) (VHH, not shown: small tags and cut ends, Llama VHH purified from E. coli periplasm) VHH: QLQLVESGGGLVQAGGSLRLSCAASGSTFPINVFAWYRQAPGEQRELGELVAFIGRSGTTNYGDSVKGRFTISRDNAKNTVYLQMDSLRPEDTAVYYCNLGDYWGQGTQVTVSS
590000
LP11 (SR16983-R3-P3-F03) (VHH, not shown: small tags and cut ends, Llama VHH purified from E. coli periplasm; also made in CHO cells for the endothelial barrier assay) VHH: QLQLVESGGGLAQAGGSLRLSCAASGRTFVGSYVMGWFRQAPGKEREFVAASSRSTGNTVYLDSVKGRFTISRDDAKNTLFLQMNRLKPEDTAVYYCATRASVNYNYAAWPYWGQGTQVTVSS
330000
LP2 (SR16983-R2-P3-H10) (VHH, not shown: small tags and cut ends, Llama VHH purified from E. coli periplasm) VHH: QVQLVESGGGLVQAGGSLRLSCAASGRPISAYTWAWFRQAPGKEREFVAAITSSAGTTYYADSVRGRFTISRDNAENTVYLRMNTLKPEDTAVYYCAADDQGDNWYDHWGQGTQVTVSS
130000

Provide kon value for the following binder: LP18 (SR16983-R4-P1-A11) (VHH, not shown: small tags and cut ends, Llama VHH purified from E. coli periplasm) VHH: QLQLVESGGGLVQPGGSLRLSCAASGFTFSTKWMYWVRQGPGKGLERVAAIDAGGTSTYYADSVKGRFTISRDNSENTVYLQMNSLESADTAVYYCARSEGGLFRGRGTQVTVSA 240000

Provide kon value for the following binder: LP10 (SR16983-R3-P3-E06) (VHH, not shown: small tags and cut ends, Llama VHH purified from E. coli periplasm) VHH: QVQLVESGGGLVQAGGSLRLSCAASGTIESINDMGWYRQAPGKQRELVATVSSSGMTNYADSAKGRFTISRDNAKNTMYLQMNSLKPEDTAVYYCKAHISRSYYYDSLGYDYWGQGTQVTVSS 230000

Provide kon value for the following binder: LP7 (SR16983-R3-P2-H08) (VHH, not shown: small tags and cut ends, Llama VHH purified from E. coli periplasm) VHH: EVQLVESGGGLVQAGGSLRLSCAASGTTFDMNSMGWYRQGPGFKRELVATISMGGDTNYADSVKGRFTISRANAKNTVYMQMNSLKPEDTAVYYCNAERIWPNRRTFWGQGTQVTVSS 440000

Provide kon value for the following binder: LP20 (SR16983-R4-P1-B07) (VHH, not shown: small tags and cut ends, Llama VHH purified from E. coli periplasm) VHH: QLQLVESGGGLVQAGGSLRLSCTASGSTVRVTAGGWYRQTPGNERELVADIDNGGSTTYADSVKGRFTISRDNAKNAVDLQMNSLKPEDTAVYRCFVIAIPDSAPRPRAYWGQGTEVTVSS 380000

Provide kon value for the following binder: LP8 (SR16983-R3-P3-A04) (VHH, not shown: small tags and cut ends, Llama VHH purified from E. coli periplasm) VHH: QLQLVESGGGLVEAGGSLRLSCAASGRTFSSGALGWFRQAPGKEREFVATIRWSDERTQYSEFVKGRFTISRDNAKNTVYLQMNNLQPEDTAVYYCRSTVGNLLYWGQGTQVTVSS 620000
